Ref: patent US8338422B2

- Target of assay: PLK4 (h) (Homo sapiens, UniProt O00444)
- Sequence (O00444 whole entry): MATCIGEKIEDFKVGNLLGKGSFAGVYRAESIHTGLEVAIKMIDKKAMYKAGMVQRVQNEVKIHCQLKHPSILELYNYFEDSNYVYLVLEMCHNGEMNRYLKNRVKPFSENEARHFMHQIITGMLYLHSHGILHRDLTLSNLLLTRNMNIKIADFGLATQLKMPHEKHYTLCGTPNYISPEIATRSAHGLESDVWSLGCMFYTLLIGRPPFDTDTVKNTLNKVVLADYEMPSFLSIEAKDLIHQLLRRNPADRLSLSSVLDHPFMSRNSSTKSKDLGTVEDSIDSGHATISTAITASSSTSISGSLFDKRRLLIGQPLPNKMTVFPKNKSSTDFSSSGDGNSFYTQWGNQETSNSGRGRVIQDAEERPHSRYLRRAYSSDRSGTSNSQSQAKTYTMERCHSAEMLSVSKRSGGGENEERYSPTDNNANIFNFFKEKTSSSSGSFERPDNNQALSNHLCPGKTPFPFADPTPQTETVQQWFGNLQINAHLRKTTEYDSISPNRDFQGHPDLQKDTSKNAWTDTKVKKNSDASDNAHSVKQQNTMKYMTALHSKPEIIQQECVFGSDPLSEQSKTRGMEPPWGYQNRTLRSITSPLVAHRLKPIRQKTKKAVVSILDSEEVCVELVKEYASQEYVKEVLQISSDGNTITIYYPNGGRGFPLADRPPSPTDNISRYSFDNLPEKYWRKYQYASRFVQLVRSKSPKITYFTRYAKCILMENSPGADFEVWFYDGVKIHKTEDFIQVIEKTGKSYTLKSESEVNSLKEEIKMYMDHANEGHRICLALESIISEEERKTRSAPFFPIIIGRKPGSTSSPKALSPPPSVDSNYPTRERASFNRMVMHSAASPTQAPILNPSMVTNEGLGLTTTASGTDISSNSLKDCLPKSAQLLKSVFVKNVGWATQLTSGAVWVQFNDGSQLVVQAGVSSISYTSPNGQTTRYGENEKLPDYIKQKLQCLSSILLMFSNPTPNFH
- Measurement notes: PLK-4 human kinase assay (SPA)
- Assay type: biochemical
- Experimental context: read-out: PLK4 pIC50 (converted)
Here, each record is paired with measured IC50 data.
Return type: number; implicit unit µM.

Query :: Checklist item: IC50 tested on PLK4 (h) (Homo sapiens, UniProt O00444), entry CN1CCCC(=O)N(C)CCNc2ncnc3c2/C(=C/Nc2cccc(c2)C1)C(=O)N3 [Compound 82] , value?
Result :: 6.17

Query :: Checklist item: IC50 tested on PLK4 (h) (Homo sapiens, UniProt O00444), entry CN1CCNC(=O)COc2cccc(c2)N/C=C2\C(=O)Nc3ncnc(c32)NCC1 [Compound 167] , value?
Result :: 2.4

Query :: Checklist item: IC50 tested on PLK4 (h) (Homo sapiens, UniProt O00444), entry CN1CCNC(=O)CCCCCOc2cc(ccc2Cl)N/C=C2\C(=O)Nc3ncnc1c32 [Compound 52] , value?
Result :: 9.55

Query :: Checklist item: IC50 tested on PLK4 (h) (Homo sapiens, UniProt O00444), entry COCCN1CCCOc2cccc(c2)N/C=C2\C(=O)Nc3ncnc(c32)NCCN(C)C(=O)C1 [Compound 162] , value?
Result :: 3.09

Query :: Checklist item: IC50 tested on PLK4 (h) (Homo sapiens, UniProt O00444), entry CN1CCNC(=O)CCCCCCOc2cc(ccc2Cl)N/C=C2\C(=O)Nc3ncnc1c32 [Compound 49] , value?
Result :: 7.41

Query :: Checklist item: IC50 tested on PLK4 (h) (Homo sapiens, UniProt O00444), entry CN1CC(=O)N(CCN2CCOCC2)CCC(=O)NCC#Cc2cccc3c2/C(=C/Nc2cccc(c2)S1(=O)=O)C(=O)N3 [Compound 5] , value?
Result :: 4.17
